Examples of molecules with documented growth follow.
# Tested on: KM12 colon
# Protocol Details: NCI-60 one-dose screen, 48 h (100 = growth as untreated, 0 = no growth, -100 = all killed)
# Test Conditions: 10 µM unless noted
This is part of a sample that, as a whole, favours compounds with a hit. Of some 83,000 tested, about 20% had one in any assay.
Report the value in % with no unit label.

Lookup: What value of growth has been reported for the following molecule? COc1ccc(C(Cc2ccccc2)NCCN2CCOCC2)cc1 (stereo unspecified)
Found: 104

Lookup: GET /values?readout=growth&item= COc1cc(OCc2cccc(-c3ccc(C(O)c4nccs4)cc3)c2C)cc(OC)c1CNCCNC(C)=O (stereo unspecified)
Found: 101

Lookup: Return reported growth; argument: "O=C1COCCN1c1ccc(NCc2cn(C(=O)c3ccc(Cl)cc3)c3ccccc23)cc1"
Found: 97.1

Lookup: Returns the measured growth for the input molecule. Input: "CN(C)c1ccc(/C=N\Nc2cc(=O)[nH]c3ccc(Cl)cc23)cc1"
Found: 104

Lookup: What measured growth goes with "NCCOc1ncccc1/C=C1\c2ccccc2-c2ccc(C(F)F)cc21" ?
Found: 78.8

Continuing:
Lookup: Please give the measured growth for this molecule: "COc1ccc(-c2nn(C(=O)c3cc(OC)c(OC)c(OC)c3)c3cc(N)ccc23)cc1"
Found: 12.4

----------
# Tested on: MDA-MB-231 breast
# Protocol Details: NCI-60 one-dose screen, 48 h
# Test Conditions: 10 µM unless noted
# Description: Cells are grown in 96 well plates and exposed to the test compound for 48 hours. Compounds are tested at a single concentration, which is 10^-5 M for most compounds. The reported endpoint is percent growth (GI% or GIPRCNT), where numbers from 0 - 100% represent growth inhibition, and numbers from -100% - 0 represent cell death. For example, a value of 40 represents 60% growth inhibition. A value of 0 means no net growth occurred over the course of the experiment. […]
About 83,000 compounds went through this panel and 20% of them were active in at least one assay; those are over-represented in the sample as a whole. Activity calls are given as the source filed them. The calls were made as follows: active = growth percent below 10; inactive = the rest.
Can you answer with just one of these options? YES = active, NO = inactive

Lookup: Please state the recorded outcome for this molecule: "O=C1CN(CCN2CC(=O)N(Cc3ccccc3)C(=O)C2)CC(=O)N1Cc1ccccc1"
Found: NO

Lookup: Lab log entry: "CC(C)OC(=O)Nc1ccc(-c2nc(-c3cccc(OCCN4CCOCC4)c3)c(-c3ccnc(Br)c3)[nH]2)cc1" — outcome as called in the assay?
Found: NO

Lookup: GET /call?item= CCC12CCC[N+]3([O-])CCC4(C(=Nc5ccccc54)C(O)(C(=O)OC)C1)C23 (centres undefined) returns the recorded outcome of this test.
Found: NO

Lookup: Record request — test call for "O=C1c2cccc3cccc(c23)C(=O)N1Nc1nc(NC2CCCCC2)nc(N2CCOCC2)n1"
Found: NO

Lookup: I'd appreciate the recorded outcome for "Cc1nc2ccccc2c(/C=C/c2ccccc2)c1C(=O)/C=C/c1ccc(C(F)(F)F)cc1" from this test.
Found: YES

----------
# System: COLO 205 colon
# Protocol Details: NCI-60 one-dose screen, 48 h (100 = growth as untreated, 0 = no growth, -100 = all killed)
# Test Conditions: 10 µM unless noted
Compounds without any hit were thinned out: in the full panel of roughly 83,000, 20% have a hit.
Outcome label depends on growth relative to 80%: at/above gives Yes, below gives No.

Lookup: Say whether "CN(C)CCCNc1nc2ccccc2c2c(=O)c3cc(F)ccc3sc12" shows growth of 80% or more.
Found: No

Lookup: Test whether the compound "NCCNc1nc2ccccc2c2c(=O)c3cccc(F)c3sc12" records growth of 80% or higher.
Found: No

Lookup: Is growth for C=C(C)C1CCC2(C)OC2C1 (stereo not given) at or above 80%?
Found: Yes

----------
# Test system: SNB-75 CNS
# Protocol Details: NCI-60 one-dose screen, 48 h
# Test Conditions: 10 µM unless noted
About 83,000 compounds went through this panel and 20% of them were active in at least one assay; those are over-represented in the sample as a whole. Active and inactive are the calls of the source. How the source made its calls: active means growth percent below 10; inactive means the rest.
Select the matching outcome among True (active), False (inactive)

Below, 4 compounds whose answers are already recorded.
Lookup: Look up the recorded call for "CN(C)c1ccc2nc3ccc(=[N+](C)C)c([N+](=O)[O-])c-3sc2c1" in this test.
Found: False

Lookup: Tell me the recorded outcome of this test for CCCCCCCCCCCCCCCCCC1OCC(COC(=O)O[C@]2(CC)C(=O)OCc3c2cc2n(c3=O)Cc3cc4ccccc4nc3-2)O1 (stereo not given in full) .
Found: False

Lookup: Outcome? "NCCNc1nc2ccccc2c2c(=O)c3cccc(F)c3sc12"
Found: False

Lookup: Fill in: this test's call for "O=[N+]([O-])c1ccc(Oc2nc(Nc3ccc(O[C@H]4CO[C@H]5[C@@H]4OC[C@@H]5O)c(Cl)c3)ncc2F)c(Cl)c1" is ___
Found: True

---
Lookup: Short answer needed: outcome of this test for O=C(O)C(c1ccccc1)N1C(=O)CSC1=S (stereo not given) ?
Found: False

Lookup: Please state the recorded outcome for this compound: "Cc1[nH]c(C(=O)Nc2ccc(C(=O)NCCN)cc2OC(C)C)c(Cl)c1Cl"
Found: False

Lookup: Recorded call for "N#Cc1cccc(NC(=O)c2cc(-c3ccc(F)cc3F)ccc2O)c1" ?
Found: False

Lookup: Which outcome was entered for the compound "COc1cccc(Cc2cc(-c3ccccc3)nn(CC(=O)c3ccccc3)c2=O)c1" in this test?
Found: False

Lookup: Any idea what this test logged for "Cn1cc(-c2cc3ncnc(Nc4ccc(CC(=O)Nc5cc(C(C)(C)C)nn5C)cc4)c3s2)cn1" ?
Found: False

Lookup: Hello, I am checking results. What call was entered for "COc1c(B(O)O)cc(C)cc1-c1nc2ccc3[nH]ncc3c2c2c1CCCC2" ?
Found: True

Lookup: So what was the verdict on "Cc1c(C(=O)NCCCc2ccccc2)sc2ncc(-c3ccc(Br)cc3)n12" in this test?
Found: False

Lookup: Kindly provide the recorded test outcome for the following compound: "NCCOc1ncccc1/C=C1\c2ccccc2-c2ccc(C(F)F)cc21"
Found: False

Lookup: Per the records of this test, what outcome belongs to "O=C1NC(=O)C(c2ccccc2)(c2ccccc2)N1Cc1cn(-c2c3ccccc3nc3ccccc23)nn1" ?
Found: False

Lookup: Answer briefly: the call reported for "N#Cc1c(-c2ccc(Cl)cc2)nc2c(c(-c3ccccc3)nn2-c2ccccc2)c1-c1ccc(O)cc1" in this assay.
Found: False

Lookup: Dear colleague, could you share the recorded outcome for "CCCCCCNC(=O)Oc1ccc(/C(=C(\C)c2ccc(Cl)cc2)c2ccc(OCCN3CCCCC3)cc2)cc1" when you have a moment?
Found: False

Lookup: Could you please tell me the result logged for "COc1ccc(/C=C/c2c(C(=O)/C=C/c3ccc(C(F)(F)F)cc3)c(C)nc3ccccc23)cc1" in this assay?
Found: False

Lookup: In this assay, the call recorded for "CCN(CC)S(=O)(=O)c1ccc(NC(=O)CSc2nnc(C)n2-c2ccccc2)cc1" was what?
Found: False

Lookup: Record request — test call for "COC(=O)/C=C1\S/C(=N\Nc2ccc([N+](=O)[O-])cc2[N+](=O)[O-])N(C2CCCCC2)C1=O"
Found: False

Lookup: Hey, what did the test say about "COc1ccc(-c2nc(NCCO)[nH]c(=O)c2C#N)cc1" ?
Found: False

Lookup: Please state the recorded outcome for this compound: "CCOC(=O)Nc1ccc(-c2nc(-c3cccc(OC)c3)c(-c3ccnc(Br)c3)[nH]2)cc1"
Found: False

Lookup: Called result for CCCCC1CCCC12NC(=O)NC2=O (stereo not given)
Found: False

----------
# Tested on: ACHN renal
# Protocol Details: NCI-60 one-dose screen, 48 h
# Test Conditions: 10 µM unless noted
This is part of a sample that, as a whole, favours compounds with a hit. Of some 83,000 tested, about 20% had one in any assay. Active and inactive are the calls of the source. How the source made its calls: active means growth percent below 10; inactive means the rest.
I would appreciate it if you answered using one of these outcomes: t = active, f = inactive

Previously resolved entries follow.
Lookup: What classification did "Cc1c(C(=O)/C=C/Nc2c(Cl)cc(S(N)(=O)=O)cc2Cl)sc2nc3ccccc3n12" end up with in this test?
Found: f

Lookup: For "Clc1ccc(C(/C=C/c2sc(Cl)nc2Cl)=N/Nc2cc(Cl)cc(Cl)c2)cc1" , which call appears in the assay record?
Found: f

Lookup: Check the results log: what was the call for "CCCCCCn1c(-c2ccc(C(=O)O/N=C(\N)c3ccc4ccccc4c3)cc2)nc(-c2ccccc2)c1-c1ccccc1" ?
Found: t

Further cases:
Lookup: Hi team, can someone confirm the assay call for "COc1cccc(OC)c1C(=O)N[C@@H]1C(=O)N2[C@@H]1SC(C)(C)[C@@H]2C(=O)O" ?
Found: f

Lookup: Field: outcome | Entry: Cc1cccc2c3c(sc12)C(c1ccc(Cl)cc1)C(C#N)=C(N)O3 (stereo unspecified)
Found: f

Lookup: Dear colleague, could you share the recorded outcome for "COc1ccc(-c2nc(NCCO)[nH]c(=O)c2C#N)cc1" when you have a moment?
Found: f

Lookup: Returns: the outcome recorded for "CN(C)c1ccc2nc3ccc(=[N+](C)C)c([N+](=O)[O-])c-3sc2c1" in this assay.
Found: f

Lookup: Which result was noted for this compound in the test: "O=CN(SSN(C=O)C1CCCCC1)C1CCCCC1"
Found: f

Lookup: Could you kindly confirm the outcome this assay logged for "CN(C)CCNc1nc2ccccc2c2c(=O)c3cc(F)ccc3sc12" ?
Found: f

Lookup: Look up the recorded call for "Cn1cc(-c2cc3ncnc(Nc4ccc(CC(=O)Nc5cc(C(C)(C)C)nn5C)cc4)c3s2)cn1" in this test.
Found: f

Lookup: Assay outcome for "C#Cc1cccc(NC(=O)c2ccc(NC(=O)C=C)cc2)c1" : what was it?
Found: f

Lookup: Recorded test call requested for "c1ccc(Cc2nn3cc(-c4ccccc4)nc3s2)cc1"
Found: f

Lookup: What classification did "c1ccc(OCc2nnc(-c3ccc(Oc4ccccc4)cc3)o2)cc1" end up with in this test?
Found: f

Lookup: Each compound tested received a call. Report the one for "CNC(=O)c1cc(-n2ccc3cc(NC(=O)c4ccc(N5CCOCC5)c(C(F)(F)F)c4)ccc32)ccn1" .
Found: f

Lookup: Given COc1ccc(N2C(=O)C(Oc3ccccc3)C2c2ccc(C)cc2)cc1 (stereo unspecified) , state the outcome it received in this test.
Found: f

Lookup: Could you check what this test reported for "Cc1ccc(-c2nc(N3CCN(C(=O)c4ccc(OC(F)(F)F)cc4)CC3)c3ccccc3n2)cc1" ?
Found: f

Lookup: Check the results log: what was the call for "CN1CCN(c2ccc(-c3cnc4c(-c5csc6ccccc56)cnn4c3)cc2)CC1" ?
Found: t

Lookup: Returns: the outcome recorded for CCn1cnc2c1c(=O)[nH]c(=O)n2CC1CCC(CNS(=O)(=O)c2ccc(OC3CCOCC3)c(F)c2)CC1 (stereo unspecified) in this assay.
Found: f

Lookup: How did this test come out for "COc1ccc2sc3c(NCCCNCCO)nc4ccccc4c3c(=O)c2c1" ?
Found: f

Lookup: # fetch the recorded call for "CCc1nnc(NC(=O)c2nnn(-c3ccccc3)c2-c2ccco2)s1" here
Found: f

Lookup: Record request — test call for "COc1cc(C(=O)/C=C/c2c(Cl)nc3sccn23)cc(OC)c1OC"
Found: f
